// data source = the Human Domainome abundance scans (Beltran et al. 2025)

B1: Protein S100-G, residues 1 to 79; numbered along this chain, P02633 (parent)
chain: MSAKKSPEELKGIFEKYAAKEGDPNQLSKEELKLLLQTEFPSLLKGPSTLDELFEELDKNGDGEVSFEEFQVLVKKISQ

# Variants of: B1
# protocol-notes: abundance fitness (aPCA) (normalised: wild type 0, dead -1); higher = more abundant; growth selection in yeast, the domain comes from the species named
# protocol-conditions: Bos taurus
Can you tell me abundance fitness for the items I'm about to list?
Lab note: write the figure by itself, no unit.

abundance fitness reported for this variant MSAKKSPEELKGIFEKYAAKEGDPNQMSKEELKLLLQTEFPSLLKGPSTLDELFEELDKNGDGEVSFEEFQVLVKKISQ [L27M] : -0.054

Just so you know, measured abundance fitness for MSAKKSPEELKGIFEKYASKEGDPNQLSKEELKLLLQTEFPSLLKGPSTLDELFEELDKNGDGEVSFEEFQVLVKKISQ [A19S] came out at 0.007

abundance fitness for MSAKKSPEELKGINEKYAAKEGDPNQLSKEELKLLLQTEFPSLLKGPSTLDELFEELDKNGDGEVSFEEFQVLVKKISQ [F14N] is -1.2

// sample MSAKKSPMELKGIFEKYAAKEGDPNQLSKEELKLLLQTEFPSLLKGPSTLDELFEELDKNGDGEVSFEEFQVLVKKISQ [E8M] , its abundance fitness was 0.014

// sample MSAKKSPEELKGIFEKYAAKEGDYNQLSKEELKLLLQTEFPSLLKGPSTLDELFEELDKNGDGEVSFEEFQVLVKKISQ [P24Y] , its abundance fitness was -0.075

Short answer for MSAKKSPEELKGIFEKYAAKEGDPNQLSKEKLKLLLQTEFPSLLKGPSTLDELFEELDKNGDGEVSFEEFQVLVKKISQ [E31K] : abundance fitness was -0.006

Documented abundance fitness of MSAKKSPEELKGIFEKYAAKEGDPNQLSKEELKLLLQTEFPSLLKGPSTLDPLFEELDKNGDGEVSFEEFQVLVKKISQ [E52P] : -0.037

abundance fitness for MSAKKSPEELKGIFEKYAAKEGDPNQLSKEELKLLLQTEFPSLLKGPSTLDEMFEELDKNGDGEVSFEEFQVLVKKISQ [L53M] is 0.015

Short answer for MSAKKSPEELKGIFEKYAAKEGDPNQLSKEELKLLLQTEFPSLLKGPSTLDELFEELDKNGDGEVSFEMFQVLVKKISQ [E69M] : abundance fitness was 0.022

The value of abundance fitness measured for the variant MSAKKSPEELKGIFEKYAAKEGDPNQLSKEELKLLLQTEFPSLLKGPSTLDELFEELDKEGDGEVSFEEFQVLVKKISQ [N60E] turned out to be 0.108

For this variant ( MSAKKSPEELKGIFEKYAAKEGDPNQLSKEELKLLLQTEFPSLLKGPSTLDELFEELDKNGDYEVSFEEFQVLVKKISQ [G63Y] ), measured abundance fitness is 0.002

MSAKKSPEELKGIFEKYAAKEGDPNQLSKEELKLLLQTEFPSLLKKPSTLDELFEELDKNGDGEVSFEEFQVLVKKISQ [G46K] has a reported abundance fitness of -0.001

The variant identified as MSAKKSPEELKGIFEKYAAGEGDPNQLSKEELKLLLQTEFPSLLKGPSTLDELFEELDKNGDGEVSFEEFQVLVKKISQ [K20G] registered its abundance fitness at -0.01

Noted for MSAKKSPEELKGIFEKYAAKEGDPNQLSKEELKLLLQTEFPSLLKGTSTLDELFEELDKNGDGEVSFEEFQVLVKKISQ [P47T] : its abundance fitness reads 0.085

The variant listed as MSAKKSPEELKGIFEKYAAKEGDPNQLSKEELKLLLQTEFPSLLKGPSTLDELFEELDKNGDGEVSFEEFQVLVFKISQ [K75F] has a reported abundance fitness of -0.151

Documented abundance fitness of MSAKKSPEELKGIFEKYAAKEGDPNQLSKEELKLLLQTEFPSLLKGPSTLDELFWELDKNGDGEVSFEEFQVLVKKISQ [E55W] : 0.011

Entry MSAKKSCEELKGIFEKYAAKEGDPNQLSKEELKLLLQTEFPSLLKGPSTLDELFEELDKNGDGEVSFEEFQVLVKKISQ [P7C] — recorded abundance fitness = -0.021

Short answer for MSAKKSPEELKGIFEKYAAKEGDPNQLSKEVLKLLLQTEFPSLLKGPSTLDELFEELDKNGDGEVSFEEFQVLVKKISQ [E31V] : abundance fitness was -0.033

# abundance fitness (variant: MSAKKSPEELKGIFEKYAAKEGDPNQLSKEELKLLLQTEFPSLLKGPSTLDELFEELDKNGDGEVSFEEFQVLVKEISQ [K76E] ) is -0.126

The reported value for MSAKKSPEELKGIFEKYAAKEGDPNQLSKEELKLLLQTEFPSLLKGPSTLDELFEELDKNGDGESSFEEFQVLVKKISQ [V65S] in terms of abundance fitness is -0.109

// recorded abundance fitness for MSAKKSPEELKGIFEKYAAKGGDPNQLSKEELKLLLQTEFPSLLKGPSTLDELFEELDKNGDGEVSFEEFQVLVKKISQ [E21G] : -0.034

Record MSAKISPEELKGIFEKYAAKEGDPNQLSKEELKLLLQTEFPSLLKGPSTLDELFEELDKNGDGEVSFEEFQVLVKKISQ [K5I] . Reported abundance fitness: 0.045

// field: abundance fitness; key: MSAKKSPEELKGIFEKYAAKEGDPNQLSKEELKLELQTEFPSLLKGPSTLDELFEELDKNGDGEVSFEEFQVLVKKISQ [L35E] ; value = -1.11

The reported abundance fitness of the variant MSAKKSPEELKGIFEKYAAKEGDPNQLSKEELKLLLQTEFPSLLKGPSTLDQLFEELDKNGDGEVSFEEFQVLVKKISQ [E52Q] was -0.023

For this variant ( MSAKKSPEELKGIFEKYAAKEGDPNQLSKEELKLLLQTEFPSLLKNPSTLDELFEELDKNGDGEVSFEEFQVLVKKISQ [G46N] ), measured abundance fitness is 0.037

For this variant ( MSAKKSPEELKGIFEKYAAKEGDPNGLSKEELKLLLQTEFPSLLKGPSTLDELFEELDKNGDGEVSFEEFQVLVKKISQ [Q26G] ), measured abundance fitness is -0.031

Entry MSAKKSPEELKGIFEKYAAKEGDPNQLSKEELKLLLQTEFPSLLKGPSTLDELFEELDKNGDGEVSFEECQVLVKKISQ [F70C] ; abundance fitness = -0.169

// sample MSAKKMPEELKGIFEKYAAKEGDPNQLSKEELKLLLQTEFPSLLKGPSTLDELFEELDKNGDGEVSFEEFQVLVKKISQ [S6M] , its abundance fitness was -0.111

Documented abundance fitness of MSAKKSPEELKGIFEKYAAKEGDPNQLSKEELKLLLQTEFPSLLKGPSTVDELFEELDKNGDGEVSFEEFQVLVKKISQ [L50V] : 0.082

MSAKKSPEELKGIFEKYAAKEGDPNQLSKEFLKLLLQTEFPSLLKGPSTLDELFEELDKNGDGEVSFEEFQVLVKKISQ [E31F] has a reported abundance fitness of -0.123

# abundance fitness (variant: MSAKKSPEELKGIFEKYAAKEGDPNQLSKEELKLLLQTEFPSLLKGPSTLDELFEELDKNGDGEVSFYEFQVLVKKISQ [E68Y] ) is -0.216

// sample MSAKKSPEELKGIFEKYAAKEGDPNQLSKEELKLLLQTEFPSLLKGPSTLDELFEELDKPGDGEVSFEEFQVLVKKISQ [N60P] , its abundance fitness was 0.004

The value of abundance fitness measured for the variant MSAKKSPEELKGIFEKYAAKEGDPNQLSKEELKLLLQTEFPSLLKGPSTLDELFEELDKNGDGEVSFEKFQVLVKKISQ [E69K] turned out to be -0.016

Note to self: abundance fitness recorded for MSAKKSPEELKGIFEKYAAIEGDPNQLSKEELKLLLQTEFPSLLKGPSTLDELFEELDKNGDGEVSFEEFQVLVKKISQ [K20I] was -0.098

Noted for MSAKKSPEELKGIFEKYAAKEGDPNQLSKEELKLLLYTEFPSLLKGPSTLDELFEELDKNGDGEVSFEEFQVLVKKISQ [Q37Y] : its abundance fitness reads -0.118

Per the records, this variant ( MSAKKSPEELKGIFEKYAAKEGDPNQLSKEELKLFLQTEFPSLLKGPSTLDELFEELDKNGDGEVSFEEFQVLVKKISQ [L35F] ) has abundance fitness equal to -0.164

The measured abundance fitness associated with MSAKKSPEELKGIFEKYAAKEGDPNQLSKEELKLLLQTEFPSLLKGPSTLDELFEESDKNGDGEVSFEEFQVLVKKISQ [L57S] reads 0.013

Noted for MSAKKSPEELKGIFEKYAAKEGDPNQLSKEELKLLLQTEFPSLLKGPSTLDELFEELDKNGDGEVSFEETQVLVKKISQ [F70T] : its abundance fitness reads -0.162

Given item MSAKKSPEELKGIFEKYAAKEGDPNQLSKEELKLLLQTEFPSLLKYPSTLDELFEELDKNGDGEVSFEEFQVLVKKISQ [G46Y] , the value recorded as its abundance fitness is 0.011

// recorded abundance fitness for MSAKKSPEELKGIFEKYAAKEGDPNQLSKEELKLLLQTEFPSLLKFPSTLDELFEELDKNGDGEVSFEEFQVLVKKISQ [G46F] : -0.005

Sure, the documented abundance fitness for MSAKKSPEELKGIFEKYAAKVGDPNQLSKEELKLLLQTEFPSLLKGPSTLDELFEELDKNGDGEVSFEEFQVLVKKISQ [E21V] is -0.057

For record MSAKKSPEELKGIFEKYAAKEGDPNQLIKEELKLLLQTEFPSLLKGPSTLDELFEELDKNGDGEVSFEEFQVLVKKISQ [S28I] the listed abundance fitness is -0.282

Record summary for MSAKKSPEELKGIFEKYAAKEGDPNQLSKEELKLLLQTEFPSLLKGPSTLDELFEELDKNGDGEQSFEEFQVLVKKISQ [V65Q] : reported abundance fitness = -0.165

Measured abundance fitness of MSAKKSPESLKGIFEKYAAKEGDPNQLSKEELKLLLQTEFPSLLKGPSTLDELFEELDKNGDGEVSFEEFQVLVKKISQ [E9S] : -0.073

Record MSAKKSPEELKGIAEKYAAKEGDPNQLSKEELKLLLQTEFPSLLKGPSTLDELFEELDKNGDGEVSFEEFQVLVKKISQ [F14A] , field abundance fitness: -0.98

// abundance fitness lookup, variant = MSAKKSPEELKGIFEKYAAKEGDPNQLSKEELKLLLQTEFASLLKGPSTLDELFEELDKNGDGEVSFEEFQVLVKKISQ [P41A] , result: 0.079
